- Test system: Cystic fibrosis transmembrane conductance regulator (Homo sapiens), P13569 [F508del]
- Sequence (P13569 as listed by the source): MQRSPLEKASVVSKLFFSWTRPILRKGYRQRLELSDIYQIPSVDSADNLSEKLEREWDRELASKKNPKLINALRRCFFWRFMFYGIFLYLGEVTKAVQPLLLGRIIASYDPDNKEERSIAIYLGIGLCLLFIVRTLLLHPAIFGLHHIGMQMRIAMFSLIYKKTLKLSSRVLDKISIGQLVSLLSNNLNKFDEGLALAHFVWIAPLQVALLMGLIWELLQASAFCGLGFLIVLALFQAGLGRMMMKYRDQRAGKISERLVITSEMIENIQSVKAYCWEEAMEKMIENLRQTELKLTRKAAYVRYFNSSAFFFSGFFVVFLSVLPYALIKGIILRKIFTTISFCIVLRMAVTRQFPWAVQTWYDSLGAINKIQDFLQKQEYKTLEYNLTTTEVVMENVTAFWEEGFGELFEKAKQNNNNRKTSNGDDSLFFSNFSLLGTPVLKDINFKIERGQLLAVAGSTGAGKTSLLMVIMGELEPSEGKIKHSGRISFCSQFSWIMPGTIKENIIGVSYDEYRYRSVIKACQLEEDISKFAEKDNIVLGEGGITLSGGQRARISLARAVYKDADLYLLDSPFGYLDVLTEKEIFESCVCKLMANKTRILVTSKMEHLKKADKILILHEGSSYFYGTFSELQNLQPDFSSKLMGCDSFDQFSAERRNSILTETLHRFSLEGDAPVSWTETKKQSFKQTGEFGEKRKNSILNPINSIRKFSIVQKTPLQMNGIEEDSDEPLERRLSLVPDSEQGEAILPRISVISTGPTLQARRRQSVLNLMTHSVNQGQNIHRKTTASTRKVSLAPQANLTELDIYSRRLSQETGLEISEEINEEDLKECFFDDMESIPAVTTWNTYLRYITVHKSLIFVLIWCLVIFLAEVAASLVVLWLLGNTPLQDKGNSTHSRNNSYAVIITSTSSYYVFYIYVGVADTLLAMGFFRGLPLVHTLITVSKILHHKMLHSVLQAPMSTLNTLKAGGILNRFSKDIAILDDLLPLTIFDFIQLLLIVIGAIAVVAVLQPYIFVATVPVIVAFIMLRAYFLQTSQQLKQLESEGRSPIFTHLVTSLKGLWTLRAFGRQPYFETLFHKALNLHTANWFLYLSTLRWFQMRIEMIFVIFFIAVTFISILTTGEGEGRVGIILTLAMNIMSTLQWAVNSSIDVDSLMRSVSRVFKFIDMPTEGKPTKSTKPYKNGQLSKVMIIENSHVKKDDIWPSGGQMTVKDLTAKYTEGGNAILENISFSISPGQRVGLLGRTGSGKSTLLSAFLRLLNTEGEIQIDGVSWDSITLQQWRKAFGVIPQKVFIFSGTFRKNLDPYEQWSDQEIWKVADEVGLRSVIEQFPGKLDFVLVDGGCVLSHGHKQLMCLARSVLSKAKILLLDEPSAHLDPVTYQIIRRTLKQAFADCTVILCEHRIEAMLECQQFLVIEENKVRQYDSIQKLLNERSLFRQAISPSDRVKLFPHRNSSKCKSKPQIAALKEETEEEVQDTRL
- Assay info: Potentiation of homozygous CFTR F508del mutant in human HBE cells assessed as maximal activation by trans-epithelial current clamp assay relative to ABBV-2222
- Format: cell-based
- Condition info: filed as activator

>  <Compound>
COc1ccc(C23CC4CC42C3)cc1CN[C@H]1[C@H](C(C)(C)C)[C@@H](C(=O)O)N(C(=O)C2CCCCC2)[C@H]1c1ccccc1 (some centres undefined)

>  <Target of assay>
Cystic fibrosis transmembrane conductance regulator (Homo sapiens), P13569 [F508del]

>  <%max>
173%

$$$$
>  <Compound>
COc1ccc(C(C)(C)C)cc1CN[C@H]1[C@H](C(C)(C)C)[C@@H](C(=O)O)N(C(=O)[C@@H]2CCCCO2)[C@H]1c1ccccc1

>  <Target of assay>
Cystic fibrosis transmembrane conductance regulator (Homo sapiens), P13569 [F508del]

>  <%max>
180%

$$$$
>  <Compound>
COc1ccc(C(C)(C)C)cc1CN[C@H]1[C@H](C(C)(C)C)[C@@H](C(=O)O)N(C(=O)C2CCCCC2)[C@H]1c1ccccc1

>  <Target of assay>
Cystic fibrosis transmembrane conductance regulator (Homo sapiens), P13569 [F508del]

>  <%max>
195%

$$$$
>  <Compound>
COc1ncc(C(F)(F)F)cc1CN[C@H]1[C@H](C(C)(C)C)[C@@H](C(=O)O)N(C(=O)C2CCCCC2)[C@H]1c1ccccc1

>  <Target of assay>
Cystic fibrosis transmembrane conductance regulator (Homo sapiens), P13569 [F508del]

>  <%max>
85%

$$$$
